tgt: p-Akt3 in WM115 cells (Homo sapiens, UniProt Q9Y243)
Construct: SureFire assays to detect cellular p-Akt1, p-Akt2 and p-Akt3 levels in WM115 cells (Akt2/3) and LNCaP cells (Akt1); endogenous in cells; host or cells: WM115 (ECACC 91061232), insulin-stimulated
Sequence (Q9Y243 whole entry): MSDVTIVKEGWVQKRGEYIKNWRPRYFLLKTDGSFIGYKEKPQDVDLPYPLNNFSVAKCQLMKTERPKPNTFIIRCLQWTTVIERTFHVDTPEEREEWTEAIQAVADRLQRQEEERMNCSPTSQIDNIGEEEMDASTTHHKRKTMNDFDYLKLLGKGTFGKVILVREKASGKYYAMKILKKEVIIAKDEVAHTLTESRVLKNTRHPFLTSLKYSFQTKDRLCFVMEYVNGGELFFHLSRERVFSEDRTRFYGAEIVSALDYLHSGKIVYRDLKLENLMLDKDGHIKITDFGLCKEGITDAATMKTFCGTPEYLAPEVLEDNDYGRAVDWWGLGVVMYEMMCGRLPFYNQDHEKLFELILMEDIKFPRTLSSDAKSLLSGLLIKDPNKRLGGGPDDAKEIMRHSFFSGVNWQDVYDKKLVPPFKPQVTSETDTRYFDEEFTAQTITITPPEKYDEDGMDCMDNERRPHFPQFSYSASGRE
protocol.notes: Phospho-Akt cellular SureFire assay, p-Akt3 in WM115 cells
Type: cell-based
condition.notes: insulin stimulated, read-out: Biological Assay 2 IC50 (nM) Akt3 WM115
Give IC50 for every item shown.
Answers are plain numbers, in nM.

Known results for compounds:
NC1(c2ccc(-c3ncc(NC(=O)C[C@H]4CC[C@H](N5CCOC5=O)CC4)cc3-c3ccccc3)cc2)CC(F)(F)C1 = 100
CC(C)OC(=O)N(C)[C@H]1CC[C@H](CC(=O)Nc2cc(-c3ccccc3)c(-c3ccc([C@]4(N)C[C@](C)(O)C4)cc3)cn2)CC1 = 160
CC(=O)N(C)[C@H]1CC[C@H](CC(=O)Nc2cc(-c3ccccc3)c(-c3ccc([C@]4(N)C[C@H](F)C4)cc3)nn2)CC1 = 46
N[C@]1(c2ccc(-c3ncc(NC(=O)C[C@H]4CC[C@H](N5CCOC5=O)CC4)cc3-c3ccccc3)cc2)C[C@@H](F)C1 = 30

Please give IC50 for each item listed below.
1. CC(=O)N(C)[C@H]1CC[C@H](CC(=O)Nc2cc(-c3ccsc3)c(-c3ccc(C4(N)CC4)c(F)c3)nn2)CC1
2. COC(=O)N(C)[C@H]1CC[C@H](CC(=O)Nc2cc(-c3ccsc3)c(-c3ccc([C@]4(N)C[C@](C)(O)C4)cc3)nn2)CC1

Completion:
1. 230
2. 8
